# TESTED TARGET: CI-M6PR (Homo sapiens)
# Sequence (P11717 41-1365 limits assumed): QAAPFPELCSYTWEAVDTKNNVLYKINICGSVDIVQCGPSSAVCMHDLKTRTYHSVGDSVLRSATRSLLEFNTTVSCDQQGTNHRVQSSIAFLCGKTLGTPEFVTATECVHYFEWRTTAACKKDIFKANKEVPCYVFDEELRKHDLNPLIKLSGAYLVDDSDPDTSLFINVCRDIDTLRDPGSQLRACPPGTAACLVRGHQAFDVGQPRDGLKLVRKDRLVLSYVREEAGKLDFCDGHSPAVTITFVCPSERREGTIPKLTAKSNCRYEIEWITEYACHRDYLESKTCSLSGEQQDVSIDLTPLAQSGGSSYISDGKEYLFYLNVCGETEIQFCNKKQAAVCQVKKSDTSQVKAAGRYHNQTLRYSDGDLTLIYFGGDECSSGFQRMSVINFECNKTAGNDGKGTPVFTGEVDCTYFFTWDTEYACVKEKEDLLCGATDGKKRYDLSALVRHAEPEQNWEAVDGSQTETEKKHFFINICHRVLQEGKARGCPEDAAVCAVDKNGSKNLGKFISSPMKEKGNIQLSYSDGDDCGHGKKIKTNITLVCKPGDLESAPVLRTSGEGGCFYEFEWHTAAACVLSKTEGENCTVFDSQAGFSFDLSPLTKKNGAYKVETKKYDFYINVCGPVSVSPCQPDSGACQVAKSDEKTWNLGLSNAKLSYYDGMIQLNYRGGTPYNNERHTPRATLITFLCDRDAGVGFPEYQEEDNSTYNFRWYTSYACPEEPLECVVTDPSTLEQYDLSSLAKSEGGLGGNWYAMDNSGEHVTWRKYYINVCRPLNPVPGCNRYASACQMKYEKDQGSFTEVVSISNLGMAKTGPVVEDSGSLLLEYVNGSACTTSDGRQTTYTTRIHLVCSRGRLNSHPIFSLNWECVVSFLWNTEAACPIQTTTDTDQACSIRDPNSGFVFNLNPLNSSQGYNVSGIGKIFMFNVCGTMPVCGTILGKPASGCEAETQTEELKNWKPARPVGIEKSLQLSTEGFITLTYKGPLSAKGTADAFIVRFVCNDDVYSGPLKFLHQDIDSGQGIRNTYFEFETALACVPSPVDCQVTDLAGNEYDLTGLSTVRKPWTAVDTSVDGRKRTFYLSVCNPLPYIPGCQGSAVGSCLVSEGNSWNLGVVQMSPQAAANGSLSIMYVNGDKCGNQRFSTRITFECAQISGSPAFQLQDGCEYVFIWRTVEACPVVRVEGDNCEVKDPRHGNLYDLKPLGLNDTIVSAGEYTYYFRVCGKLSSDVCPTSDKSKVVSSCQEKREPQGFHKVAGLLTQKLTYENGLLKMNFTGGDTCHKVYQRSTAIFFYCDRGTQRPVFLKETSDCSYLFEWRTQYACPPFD
# ASSAY PROCEDURE: Human CI-M6PR binding assay (ELISA)
# Design: purchased R&D 6418-GR-050
# CONDITION SET: Table 16C; cetuximab (anti-EGFR) conjugate, average loading DAR 8; read-out: EC50 in M6PR binding assay
ASSAY METRIC: pEC50
Please keep in mind that pEC50 is minus log10 of the molar concentration; only the number is needed.

Entry O=C(CCOCCOCCOCCOCCn1cc(CCCCNC(=S)Nc2ccc(O[C@H]3O[C@H](CCP(=O)(O)O)[C@@H](O)[C@H](O)[C@@H]3O)cc2)nn1)Oc1c(F)c(F)c(F)c(F)c1F needs its pEC50 filled in; supply it.
9.39

###

# TESTED TARGET: CI-M6PR (Homo sapiens)
# ASSAY PROCEDURE: Human CI-M6PR binding assay (ELISA)
# Set-up: purchased R&D 6418-GR-050
# CONDITION SET: Table 16B; antibody conjugate, average loading DAR 4; read-out: EC50 in M6PR binding assay
ASSAY METRIC: EC50 (nM)
// units = nM; emit number, no label

Lab note: CI-M6PR (Homo sapiens) assay, enter EC50 for O=C(CCOCCOCCOCCOCCn1cc(CCCCNC(=S)Nc2ccc(O[C@H]3O[C@H](CCP(=O)(O)O)[C@@H](O)[C@H](O)[C@@H]3O)cc2)nn1)Oc1c(F)c(F)c(F)c(F)c1F here
0.41

###

# TESTED TARGET: CI-M6PR (Homo sapiens)
# ASSAY PROCEDURE: Human CI-M6PR binding assay (ELISA)
# Design: purchased R&D 6418-GR-050
# CONDITION SET: Table 16D; conjugate, m average loading DAR 9; read-out: EC50 in M6PR binding assay for conjugates of compounds of varying multivalency
# Protocol: Nunc black solid bottom MaxiSorp plates were allowed to incubate overnight at 4° C. coated with 1 μg/mL of recombinant human CI-M6PR protein (R&D, 6418-GR-050) in 50 μL PBS. The next day, coating was decanted and plates were washed 3× with PBS. Wells were blocked with 350 μL of 3% BSA-PBS for 1 hour at room temperature. […] After incubation, plates were read on a Perkin Elmer EnVision using photometric 340 and Umbelliferone 460 filter sets for excitation and emission, respectively. […]
ASSAY METRIC: EC50 (nM)
// units = nM; emit number, no label

Entry O=C(CCOCCOCCOCCOCCn1cc(CCCCNC(=S)Nc2ccc(O[C@H]3O[C@H](CCP(=O)(O)O)[C@@H](O)[C@H](O)[C@@H]3O)cc2)nn1)Oc1c(F)c(F)c(F)c(F)c1F [520 (I-7)] needs its EC50 filled in; supply it.
0.23
